All values here come from patent US20230416262A1.

Tested on: THP-1 cells
Assay: Lamp1 lysosomal exocytosis assay
Format: cell-based
Details: Homo sapiens, 55 min, 55 min incubation, top dose 20 μM
measurement-kind: EC50

Form: item CC1(C)Oc2ccc(S(=O)(=O)N3CC4(CCCC4)c4ccccc43)cc2O1 [Compound I-57] ; test system THP-1 cells; EC50: ≥ 5.01 µM

The recorded EC50 with THP-1 cells for O=C(Nc1ccc2c(c1)OCCO2)N1CCC2(CC1)CN(S(=O)(=O)c1ccc(C(F)F)cc1)c1ccccc12 [Compound I-225] was ≥ 5.01 µM

The measured EC50 that CN(C)S(=O)(=O)c1ccc(S(=O)(=O)N2CC3(CCCC3)c3ccncc32)cc1 [Compound I-127] showed for THP-1 cells is 1.01 to 5 µM

Record CN(C)S(=O)(=O)c1ccc(S(=O)(=O)N2CC3(CCCCC3)c3ccccc32)cc1 [Compound I-99] ; system THP-1 cells; EC50 = ≤ 0.5 µM

EC50 of Cn1cc(NC(=O)N2CCC3(CC2)CN(S(=O)(=O)c2ccc(C(F)F)cc2)c2ccccc23)cn1 [Compound I-200] , assay on THP-1 cells, is ≥ 5.01 µM

The compound CN(Cc1ccon1)C(=O)C1CCC2(CC1)CN(S(=O)(=O)c1ccc(C(F)F)cc1)c1ccccc12 (centres unmarked) [Compound I-242] on THP-1 cells: EC50 was ≥ 5.01 µM

***
Per the reported THP-1 cells data, CC1(C)Cc2cc(S(=O)(=O)N3CC4(CCCC4)c4ccccc43)ccc2O1 [Compound I-2] has EC50 of ≥ 5.01 µM

O=S(=O)(c1ccc(C(F)F)cc1)N1CC2(CCN(Cc3cnccn3)CC2)c2ccccc21 [Compound I-163] on THP-1 cells gives EC50 = ≥ 5.01 µM

---

System: TFEB
Assay: TFEB nuclear translocation assay
Type: cell-based
Conditions: Homo sapiens; HeLa wt or HeLa TRPML1 KO cells, treated for 2 hrs; ratio of nuclear to ring-region TFEB intensity
pEC50: −log10 of the molar value.
Entries and their pEC50

Worked cases, pEC50 given:
O=S(=O)(c1ccc(C(F)F)cc1)N1CC2(CCN(CC(F)(F)F)CC2)c2ccccc21 [Compound I-86] yielded pEC50 of ≥ 5.70

pEC50 reading for Cc1ccc(S(=O)(=O)N2CC3(CCCC3)c3ccccc32)cc1F [Compound I-15] : 5.00 to 5.10

Entry O=S(=O)(c1cnn(C2CCCCC2)c1)N1CC2(CCCC2)c2ccccc21 [Compound I-18] ; pEC50 = 5.10 to 5.70

From here, focus on the item given below.
// CC1(C)Cc2cc(S(=O)(=O)N3CC4(CCCC4)c4ccccc43)ccc2O1 [Compound I-2] : pEC50 value = 5.10 to 5.70

---

System: TFEB
Test: TFEB nuclear translocation assay
Assay type: cell-based
Conditions: Homo sapiens; HeLa wt or HeLa TRPML1 KO cells, treated for 2 hrs; ratio of nuclear to ring-region TFEB intensity
pEC50: −log10 of the molar value.
measurement-kind: pEC50

Reference set, count: 3
I looked up Cc1cccc(CS(=O)(=O)N2CC3(CCCC3)c3ccccc32)c1 and its pEC50 for TFEB was ≤ 5.00

// molecule CC(C)OC(=O)N1CCC2(CC1)CN(S(=O)(=O)c1ccc(C(F)F)cc1)c1ccccc12 , assay TFEB, pEC50 value: ≥ 5.70

pEC50 value, target or system TFEB, for Cc1ccc(CS(=O)(=O)N2CC3(CCCC3)c3ccccc32)c(F)c1 : 5.10 to 5.70

Next:
# lookup: O=C(OCc1ccccc1)N1CCC2(CC1)CN(S(=O)(=O)c1ccc(C(F)F)cc1)c1cccc(F)c12 on TFEB, pEC50 = ≥ 5.70

---

The following compounds are shown together with reported pEC50 values.
Test system: TFEB
Assay: TFEB nuclear translocation assay
Format: cell-based
Settings: Homo sapiens; HeLa wt or HeLa TRPML1 KO cells, treated for 2 hrs; ratio of nuclear to ring-region TFEB intensity
pEC50: −log10 of the molar value.

Quick note, pEC50 for O=S(=O)(Cc1cccc(F)c1)N1CC2(CCCC2)c2ccccc21 landed at 5.10 to 5.70

Documented pEC50 of O=C(OCc1ccccc1)N1CCC2(CC1)CN(S(=O)(=O)c1ccc(C3CC3)cc1)c1ccccc12 : ≥ 5.70

pEC50 reported for this compound O=S(=O)(c1ccc(C2CC2)cc1)N1CC2(CCCC2)c2ccccc21 : 5.10 to 5.70

CN(C(=O)N1CC2(CCN(C(=O)OCc3ccccc3)CC2)c2ccccc21)c1ccc(C(F)F)cc1 yielded pEC50 of ≤ 5.00

---

# EC50 values compiled below
Tested on: THP-1 cells
Test: Lamp1 lysosomal exocytosis assay
Type: cell-based
Conditions: Homo sapiens, 55 min, 55 min incubation, top dose 20 μM

// worked examples, EC50 included
The reported value for CN(C)S(=O)(=O)c1ccc(S(=O)(=O)N2CC3(CCN(C(=O)OCc4ccccc4)CC3)c3ccccc32)cc1 in terms of EC50 is ≤ 0.5 µM

Entry under test: CN(Cc1ccccc1)C(=O)N1CCC2(CC1)CN(S(=O)(=O)c1ccc(C(F)F)cc1)c1ccccc12 . Its EC50 was 0.51 to 1 µM

More entries:
// EC50 lookup, molecule = CN1CCC2(CC1)CN(S(=O)(=O)c1ccc(C(F)F)cc1)c1ccccc12 , result: ≥ 5.01 µM

Form field EC50, entry Cc1nn(C)c(C)c1NC(=O)N1CCC2(CC1)CN(S(=O)(=O)c1ccc(C(F)F)cc1)c1ccccc12 : ≥ 5.01 µM

In plain terms, O=S(=O)(c1ccc(C(F)F)cc1)N1CC2(CCN(CC(F)(F)F)CC2)c2ccccc21 has a documented EC50 of ≥ 5.01 µM

For record O=C(OCc1ccccc1)N1CCC2(CC1)CN(S(=O)(=O)c1ccc(C(F)F)cc1)c1ccc(F)cc12 the listed EC50 is ≥ 5.01 µM

Record summary for O=C(OCc1ccccc1)N1CCC2(CC1)CN(S(=O)(=O)c1ccc(S(=O)(=O)C(F)F)cc1)c1ccccc12 : reported EC50 = ≤ 0.5 µM

---

Each entry below carries its recorded pEC50.
Test system: THP-1 cells
Experiment: Lamp1 lysosomal exocytosis assay
Type: cell-based
Settings: Homo sapiens, 55 min, 55 min incubation, top dose 20 μM
pEC50: −log10 of the molar value.

Worked cases, answers included:
So for O=S(=O)(c1ccc(C2CC2(F)F)cc1)N1CC2(CCCC2)c2ccccc21 (stereo not drawn) [Compound I-48] , the logged pEC50 turned out to be ≤ 5.30

The value of pEC50 measured for the molecule O=C(NCc1ccccn1)C1CCC2(CC1)CN(S(=O)(=O)c1ccc(C(F)F)cc1)c1ccccc12 (stereo not drawn) [Compound I-231] turned out to be ≤ 5.30

Short answer for CN(C(=O)C1CCC2(CC1)CN(S(=O)(=O)c1ccc(C(F)F)cc1)c1ccccc12)c1ccccc1 (stereo not drawn) [Compound I-234] : pEC50 was ≤ 5.30

pEC50 for CN(C)S(=O)(=O)c1ccc(S(=O)(=O)N2CC3(CCCC3)c3c(F)cccc32)cc1 [Compound I-95] is ≥ 6.30

GET /value?item= O=S(=O)(c1ccc(C(F)F)cc1)N1CC2(CCN(Cc3ccccc3)CC2)c2ccccc21 [Compound I-168] &field=pEC50 returns ≤ 5.30

Please fill in: pEC50 reported for O=S(=O)(c1ccc2c(c1)CCC(C(F)F)O2)N1CC2(CCCC2)c2ccccc21 (stereo not drawn) [Compound I-35] = ≤ 5.30

Kindly note the recorded pEC50 for O=C(NCC1CCCO1)N1CCC2(CC1)CN(S(=O)(=O)c1ccc(C(F)F)cc1)c1ccccc12 (stereo not drawn) [Compound I-203] , which is ≤ 5.30

Entry O=C(NC1CCOC1)N1CCC2(CC1)CN(S(=O)(=O)c1ccc(C(F)F)cc1)c1ccccc12 (stereo not drawn) [Compound I-195] ; pEC50 = ≤ 5.30

Reported pEC50 for O=C(OCc1ccccc1)N1CCC2(CC1)CN(C(=O)c1ccc(C(F)F)cc1)c1ccccc12 [Compound I-185] was ≤ 5.30

Given item O=C(NCCn1cccn1)N1CCC2(CC1)CN(S(=O)(=O)c1ccc(C(F)F)cc1)c1ccccc12 [Compound I-208] , the value recorded as its pEC50 is ≤ 5.30

# input for lookup
Memo: O=C(OCc1ccccc1)N1CCC2(CC1)CN(S(=O)(=O)c1ccc(C(F)F)cc1)c1cccc(F)c12 [Compound I-130] , reported pEC50: ≥ 6.30

---

Test system: TFEB
Assay: TFEB nuclear translocation assay
Type: cell-based
Conditions: Homo sapiens; HeLa wt or HeLa TRPML1 KO cells, treated for 2 hrs; ratio of nuclear to ring-region TFEB intensity
pEC50: −log10 of the molar value.
measurement-kind: pEC50

Memo: CN(C)S(=O)(=O)c1ccc(S(=O)(=O)N2CC3(CCOCC3)c3ccccc32)cc1 [Compound I-69] , reported pEC50: ≥ 5.70

For record O=C(OCc1ccccc1)N1CCC2(C1)CN(S(=O)(=O)Cc1ccccc1)c1ccccc12 (stereo not shown) [Compound I-115] the listed pEC50 is 5.10 to 5.70

get_value(item= O=C(OCc1ccccc1)N1CCC2(CC1)CN(S(=O)(=O)Cc1ccccc1)c1ccccc12 [Compound I-80] , readout=pEC50) returns ≥ 5.70

Entry O=C(CCc1ccccc1)N1CCC2(CC1)CN(S(=O)(=O)c1ccc(C(F)F)cc1)c1ccccc12 [Compound I-174] , pEC50 reported as ≥ 5.70
